Test system: RPMI-8226 leukemia
Experiment: NCI tumour cell line growth inhibition, 48 h
valueType: TGI

See these solved cases before continuing.
COC1CC2CCC(C)C(O)(O2)C(=O)C(=O)N2CCCCC2C(=O)OC(C(C)CC2CCC(O)C(OC)C2)CC(=O)C(C)C=C(C)C(O)C(OC)C(=O)C(C)CC(C)/C=C/C=C/C=C1C (stereo unspecified) :: 19.3 µM
FC(F)(Sc1ccccn1)c1nc2ccccc2o1 :: > 100 µM
O=c1cc2ccccc2nn1Cc1cccc(Cl)c1 :: > 100 µM
CC1(CO)OC(n2cc(C(=O)NC(=O)OCc3ccccc3)c(=O)[nH]c2=O)CC1O (stereo unspecified) :: > 100 µM
Cc1ccc2ccccc2c1NC1=NCCO1 :: > 100 µM

The compound listed as C#CCOc1c(C(=O)OCC)c(=O)n(C)c2ccccc12 shows TGI equal to > 100 µM

The compound listed as CC(C)=CCNc1ncnc2nc[nH]c12 shows TGI equal to > 100 µM

The compound listed as CC(=O)[CH-]C(=O)c1ccccc1.CC(=O)[CH-]C(=O)c1ccccc1.CC(C)CCCC(C)[C@H]1CCC2[C@@H]3CC=C4C[C@@H]([O-])CC[C@]4(C)C3CC[C@@]21C.CC[O-].[Ti+4] (stereo partly specified) shows TGI equal to 52.2 µM

The compound listed as CC(=O)Nc1ccc(NC(=O)c2c(Cl)c(Cl)c(Cl)c(Cl)c2-c2nc3ccccc3[nH]2)cc1 shows TGI equal to 71 µM

The compound listed as C/C(=N/Nc1nc2ccccc2n1C)c1ccccn1 shows TGI equal to 15.3 µM

The compound listed as C=C(C)C1Cc2c(cc(O)c3c(=O)c4c(oc23)C(O)Oc2cc(OC)c(OC)cc2-4)O1 (stereo unspecified) shows TGI equal to > 10 µM
